Reference for the values: patent USRE48461E1

Entries and their measured Percent inhibition of AR mRNA follow.
# Test system: AR mRNA
# assay_procedure: AR mRNA in LnCaP cells by free uptake (hAR_LTS00943)
# Format: cell-based, human
# measurement_setup: 0.1 μM, 24 hrs
Oligonucleotides are written 5' to 3', each unit as a sugar letter and its base; * is a phosphorothioate linkage, no mark a phosphodiester; rarer units and linkages stand in square brackets, end groups in braces. Plain capitals give the bases only. e = 2'-O-(2-methoxyethyl) (MOE); l = locked nucleic acid (LNA); k = constrained ethyl (cEt); [5mC] = 5-methylcytosine; d = 2'-deoxy (DNA)
measurement_type: Percent inhibition of AR mRNA (%)

# substance, test_target, reported
records = [
    ("584269 (k[5mC]*k[5mC]*kT*dT*dA*dT*dG*dG*dA*dT*dG*d[5mC]*dT*kG*k[5mC]*kT) [compound 584269]", "AR mRNA", 0),
    ("586124 (kG*kA*kT*dT*dT*dA*dA*dT*dG*dG*dT*dT*dG*k[5mC]*kA*kA; further chemistry not given here) [compound 586124]", "AR mRNA", 0),
    ("583918 (kA*kG*kT*d[5mC]*dG*d[5mC]*dG*dA*d[5mC]*dT*d[5mC]*dT*dG*kG*kT*kA) [compound 583918]", "AR mRNA", 0),
    ("579671 (antisense eT*kT*kG*eA*kT*kT*dT*dA*dA*dT*dG*dG*dT*kT*kG*k[5mC]) [compound 579671]", "AR mRNA", 0),
    ("586227 (kT*kG*kA*kT*kT*dT*dA*dA*dT*dG*dG*dT*dT*kG*k[5mC]*kA; antisense) [compound 586227]", "AR mRNA", 0),
    ("569221 (antisense eT*eG*kA*kT*kT*dT*dA*dA*dT*dG*dG*dT*dT*kG*k[5mC]*kA) [compound 569221]", "AR mRNA", 31),
    ("569227 (antisense eT*eG*kA*kT*kT*dT*dA*dA*dT*dG*dG*dT*kT*kG*k[5mC]*eA) [compound 569227]", "AR mRNA", 0),
    ("549458 (kG*kT*kT*dG*dA*dT*dT*dT*dA*dA*dT*dG*dG*kT*kT*kG) [compound 549458]", "AR mRNA", 14),
    ("584149 (kG*kT*k[5mC]*dA*dA*dT*dA*dT*d[5mC]*dA*dA*dA*dG*k[5mC]*kA*k[5mC]) [compound 584149]", "AR mRNA", 0),
    ("560131 (antisense kT*kT*kG*dA*dT*dT*dT*dA*dA*dT*dG*dG*kT*kT*kG*e[5mC]) [compound 560131]", "AR mRNA", 0),
    ("579666 (antisense eT*kG*kA*eT*eT*kT*kA*dA*dT*dG*dG*dT*dT*dG*k[5mC]*kA) [compound 579666]", "AR mRNA", 8),
    ("554221 (ACCAAGTTTCTTCAGC; sugars from the 5' end l3 d10 l3, all phosphorothioate, methylation of C not given here) [compound 554221]", "AR mRNA", 0),
    ("569236 (antisense eT*kG*kA*kT*dT*dT*dA*dA*dT*dG*dG*kT*kT*kG*e[5mC]*eA) [compound 569236]", "AR mRNA", 2),
    ("569216 (antisense eT*kG*kA*kT*dT*dT*dA*dA*dT*dG*dG*dT*kT*kG*k[5mC]*eA) [compound 569216]", "AR mRNA", 17),
    ("579667 (antisense eT*kT*kG*eA*eT*kT*kT*dA*dA*dT*dG*dG*dT*dT*kG*k[5mC]) [compound 579667]", "AR mRNA", 0),
    ("584163 (kG*kA*kA*d[5mC]*dA*dT*dT*dA*dT*dT*dA*dG*dG*k[5mC]*kT*kA) [compound 584163]", "AR mRNA", 0),
    ("569213 (antisense kT*kG*kA*dT*dT*dT*dA*dA*dT*dG*dG*dT*kT*kG*k[5mC]*eA) [compound 569213]", "AR mRNA", 0),
    ("584468 (k[5mC]*kA*kT*dT*dG*dT*dA*d[5mC]*dT*dA*dT*dG*d[5mC]*k[5mC]*kA*kG) [compound 584468]", "AR mRNA", 0),
    ("549372 (kA*kA*kG*dT*dT*dG*dT*dA*dG*dT*dA*dG*dT*k[5mC]*kG*k[5mC]) [compound 549372]", "AR mRNA", 0),
]
